target system: T1, nSR100 (Mus musculus, UniProt Q8BKA3)
T1 construct: host or cells: mouse N2A cells
T1 sequence (Q8BKA3 1-608): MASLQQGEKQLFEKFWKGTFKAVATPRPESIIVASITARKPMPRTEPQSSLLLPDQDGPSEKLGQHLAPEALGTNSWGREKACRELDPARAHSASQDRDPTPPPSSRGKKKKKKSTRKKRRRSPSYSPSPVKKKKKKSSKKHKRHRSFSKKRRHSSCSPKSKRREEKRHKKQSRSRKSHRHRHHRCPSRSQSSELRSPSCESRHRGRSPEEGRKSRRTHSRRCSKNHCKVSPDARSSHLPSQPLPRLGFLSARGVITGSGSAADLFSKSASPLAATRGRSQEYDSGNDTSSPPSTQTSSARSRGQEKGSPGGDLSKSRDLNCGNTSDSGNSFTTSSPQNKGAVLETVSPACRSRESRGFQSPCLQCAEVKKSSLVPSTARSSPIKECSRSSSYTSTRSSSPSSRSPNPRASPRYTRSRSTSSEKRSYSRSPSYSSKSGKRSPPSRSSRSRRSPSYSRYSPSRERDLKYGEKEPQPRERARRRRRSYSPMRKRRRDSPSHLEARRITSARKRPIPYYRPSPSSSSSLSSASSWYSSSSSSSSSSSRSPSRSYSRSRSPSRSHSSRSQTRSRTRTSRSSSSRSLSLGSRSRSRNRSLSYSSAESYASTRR
protocol summary: AP-MS nSR100 interaction partners from mouse N2A cells (Table 5)
Format: binding
condition parameters: bait Srrm4, biological replicate 2 (second number of the cell), AP-MS
Spectra (number of spectra for the prey in the purification of the bait): recorded values
// return a plain number; no unit text

Rbmx2 (protein, UniProt Q8R0F5 1-326, looked up) RNA-binding motif protein, …: MNPLTKVKLINELNEREVQLGVAEKVSWHSEYKHSAWIFVGGLPYELTEGDIICVFSQYGEIVNINLVRDKKTGKSKGFCFLCYEDQRSTVLAVDNFNGIKIKGRTIRVDHVSNYRAPQESEDVDDVTRELQEKGCGVKTPPSSPPEVSEDEDAKLTKKHKKDKKEKKKRKKEKTEGQAQAEQPSCSRSATVKEKKDERASRKHSSKTSERAQKSEHRESKKSHSGSPDGRSSYHARAEDPECKARKEKPKHEHKSASRREAEEKSRERERGRSSGTHSGRHRGHSDGRSHRSRSRSRSPDKSHRHKKYRHSRERDSYHGSDRRHH    5
Rab5c (protein, UniProt P35278 1-216, looked up) Ras-related protein Rab-5C: MAGRGGAARPNGPAAGNKICQFKLVLLGESAVGKSSLVLRFVKGQFHEYQESTIGAAFLTQTVCLDDTTVKFEIWDTAGQERYHSLAPMYYRGAQAAIVVYDITNTDTFARAKNWVKELQRQASPNIVIALAGNKADLASKRAVEFQEAQAYADDNSLLFMETSAKTAMNVNEIFMAIAKKLPKNEPQNAAGAPGRTRGVDLQESNPASRSQCCSN    2
Ywhaq (protein, UniProt P68254 1-245, looked up) 14-3-3 protein theta: MEKTELIQKAKLAEQAERYDDMATCMKAVTEQGAELSNEERNLLSVAYKNVVGGRRSAWRVISSIEQKTDTSDKKLQLIKDYREKVESELRSICTTVLELLDKYLIANATNPESKVFYLKMKGDYFRYLAEVACGDDRKQTIENSQGAYQEAFDISKKEMQPTHPIRLGLALNFSVFYYEILNNPELACTLAKTAFDEAIAELDTLNEDSYKDSTLIMQLLRDNLTLWTSDSAGEECDAAEGAEN    21
Snip1 (protein, UniProt Q8BIZ6 1-383, looked up) Smad nuclear-interacting …: MKAGKSERERSGRRRHRSGDALTTVVVKQERLSPEPVAHRRPDAPAASLSPPAAEPGHSGHRGSRARSPAKKKSKSSGRRSKSPRTKRSQSPHYPMVKVKQEREDHPRRGREDRQHREPSEQEHRRARNSERDRHRGHSRQGRSSDERPVSGQDRDRDSQNLQAQEEERDFHNARRREHRQQNESAGSEAQEVIPRPAGNRSKEVPVKEKPSFELSGALLEDTNTFRGVVIKYSEPPEARIPKKRWRLYPFKNDEVLPVMYIHRQSAYLLGRHRRIADIPIDHPSCSKQHAVFQYRLVEYTRADGTVGRRVKPYIIDLGSGNGTFLNNKRIEPQRYYELKEKDVLKFGFSSREYVLLHESSDTSELDRKEDEDDEEEEMVSDS    9

Measured Spectra (number of spectra for the prey in the purification of the bait) of Snrpb2 (protein, UniProt Q9CQI7 1-225, looked up) U2 small nuclear …: MDIRPNHTIYINNMNDKIKKEELKRSLYALFSQFGHVVDIVALKTMKMRGQAFVIFKELGSSTNALRQLQGFPFYGKPMRIQYAKTDSDIISKMRGTFADKEKKKEKKKAKTMEQAAAAANKKPGQGTPNAANTQGTAAPNPQVPDYPPNYILFLNNLPEETNEMMLSMLFNQFPGFKEVRLVPGRHDIAFVEFENDGQAGAARDALQGFKITPSHAMKITYAKK : 5
